Test system: D2-like receptor (D2, D3, and D4)
assayName: [3H]spiperone binding assay, rat striatal
testParameters: ratio of Ki values, rat brain preparation
As shown below, each of these compounds has a reported Selectivity D2-like/D3 value.

Example results:
CCCN(CCC1(O)CC(NC(=O)c2ccccc2F)C1)[C@H]1CCc2nc(N)sc2C1 (stereo in doubt) :: 36,956
CCCN(CCC1(O)CC(NC(=O)c2ccc(OC)cc2)C1)[C@H]1CCc2nc(N)sc2C1 (stereo in doubt) :: 3,779
CCCN(CC[C@]1(O)C[C@@H](NC(=O)c2cccc(-c3noc(C)n3)c2)C1)[C@H]1CCc2nc(N)sc2C1 (relative stereo) :: 29,800

Selectivity D2-like/D3 lookup needed for CCCN(CCC1(O)CC(NC(=O)c2ccc(F)c(Cl)c2)C1)[C@H]1CCc2nc(N)sc2C1 (stereo in doubt) , thanks. 16,272

Which Selectivity D2-like/D3 is listed for CCCN(CC[C@]1(O)C[C@@H](NC(=O)c2cccc(OC)c2)C1)[C@H]1CCc2nc(N)sc2C1 (relative stereo) ? 12,836

Which Selectivity D2-like/D3 value is on record for CCCN(CCC1(O)CC(NS(=O)(=O)c2ccc(F)c(Cl)c2)C1)[C@H]1CCc2nc(N)sc2C1 (stereo in doubt) ? 1,052
